biological target: Cbl-b (Homo sapiens); construct: Cbl-b-HiBit KI Jurkat Cells were purchased from Promega; host or cells: Cbl-b-HiBiT knock-in Jurkat cells; assay: Cbl-b Degradation Method B (Nano-Glo HiBiT lytic detection); format: cell-based; details: Cbl-b-HiBit KI Jurkat Cells, incubated at least 6-24 hours; half maximal degradation; read-out: Cbl-b Degredation Method B IC50
Sequence (Q13191 whole entry): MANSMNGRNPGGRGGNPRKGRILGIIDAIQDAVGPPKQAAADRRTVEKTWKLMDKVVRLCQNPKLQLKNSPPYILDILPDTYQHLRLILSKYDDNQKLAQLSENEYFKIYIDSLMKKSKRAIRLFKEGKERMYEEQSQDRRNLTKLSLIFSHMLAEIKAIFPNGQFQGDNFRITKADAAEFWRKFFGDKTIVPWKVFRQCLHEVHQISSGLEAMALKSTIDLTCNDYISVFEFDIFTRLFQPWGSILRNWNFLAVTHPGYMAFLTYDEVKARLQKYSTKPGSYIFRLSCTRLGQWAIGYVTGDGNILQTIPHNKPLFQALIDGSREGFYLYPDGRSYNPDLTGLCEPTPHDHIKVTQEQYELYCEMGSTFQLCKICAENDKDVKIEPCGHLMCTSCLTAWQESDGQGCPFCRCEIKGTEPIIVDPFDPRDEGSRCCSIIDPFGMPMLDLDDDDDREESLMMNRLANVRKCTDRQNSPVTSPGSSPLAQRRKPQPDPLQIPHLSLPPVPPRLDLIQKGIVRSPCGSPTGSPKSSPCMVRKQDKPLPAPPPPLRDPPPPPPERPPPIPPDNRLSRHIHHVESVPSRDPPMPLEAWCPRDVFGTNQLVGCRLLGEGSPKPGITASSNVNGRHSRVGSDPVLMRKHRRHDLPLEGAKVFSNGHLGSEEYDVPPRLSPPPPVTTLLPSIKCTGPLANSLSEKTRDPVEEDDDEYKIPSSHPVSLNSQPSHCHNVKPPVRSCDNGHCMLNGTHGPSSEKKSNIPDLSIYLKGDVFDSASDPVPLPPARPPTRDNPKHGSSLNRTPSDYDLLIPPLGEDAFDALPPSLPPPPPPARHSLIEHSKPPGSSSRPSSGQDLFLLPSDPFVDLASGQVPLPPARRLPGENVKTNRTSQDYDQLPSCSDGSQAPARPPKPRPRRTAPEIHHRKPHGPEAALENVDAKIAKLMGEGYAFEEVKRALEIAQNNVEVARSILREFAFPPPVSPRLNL

{"Compound": "Cn1cnnc1C[C@]1(c2cccc(N3Cc4c(cc(CN5CCN(C[C@H]6CC[C@H](OC7CCN(c8ccc9c(ccn9C9CCC(=O)NC9=O)c8)CC7)CC6)CC5)cc4C(F)(F)F)C3=O)c2)C[C@H](C#N)C1 (some centres unmarked)", "DC50": "< 5 nM"}
{"Compound": "Cn1cnnc1CC1(c2cccc(N3Cc4c(cc(N5CCC(CN6CC7(CCN(c8ccc9c(c8)C(=O)N(C8CCC(=O)NC8=O)C9=O)CC7)C6)CC5)cc4C(F)(F)F)C3=O)c2)COC1 (centres unmarked)", "DC50": "5 to 50 nM"}
{"Compound": "COc1c(N2CCC(OC3CCC4(CC3)CN(c3cc5c(c(C(F)(F)F)c3)CN(c3cccc(C6(Cc7nncn7C)COC6)c3)C5=O)C4)CC2)ccc2c1CN(C1CCC(=O)NC1=O)C2=O (centres unmarked)", "DC50": "5 to 50 nM"}
{"Compound": "Cn1cnnc1C[C@]1(c2cccc(N3Cc4c(cc(CN5CCN(C[C@H]6CC[C@H](OC7CCN(c8cccc(C(=O)NC9CCC(=O)NC9=O)c8)CC7)CC6)CC5)cc4C(F)(F)F)C3=O)c2)C[C@H](C#N)C1 (some centres unmarked)", "DC50": "5 to 50 nM"}
{"Compound": "Cn1cnnc1C[C@]1(c2cccc(N3Cc4c(cc(CN5CCN(C[C@H]6CC[C@H](OC7CCN(c8ccc(C9CCC(=O)NC9=O)c(F)c8)CC7)CC6)CC5)cc4C(F)(F)F)C3=O)c2)C[C@H](C#N)C1 (some centres unmarked)", "DC50": "> 500 nM"}

----------
Listed here: items and their measured Dmax.
molecular target: Cbl-b (Homo sapiens); construct: Cbl-b-HiBit KI Jurkat Cells were purchased from Promega; host or cells: Cbl-b-HiBiT knock-in Jurkat cells; assay: Cbl-b Degradation Method A (FACS, anti-Cbl-b antibody staining); type: cell-based; settings: Jurkat, Cbl-b-HiBit KI Jurkat Cells, incubated at least 20 hours; maximum degradation observed; read-out: Cbl-b Degredation Method A Dmax (%)
Measured attribute: Dmax

{"Molecule": "COc1c(N2CCC(CN3CCC4(CC3)CN(c3cc5c(c(C(F)(F)F)c3)CN(c3cccc([C@]6(Cc7nncn7C)C[C@@H](C#N)C6)c3)C5=O)C4)CC2)ccc2c1CN(C1CCC(=O)NC1=O)C2=O (stereo partly drawn) [Example 174]", "Value reported": "> 70%"}
{"Molecule": "Cn1cnnc1CC1(c2cccc(N3Cc4c(cc(N5CCC(CN6CC7(CCN(c8ccc9c(c8)C(=O)N(C8CCC(=O)NC8=O)C9=O)CC7)C6)CC5)cc4C(F)(F)F)C3=O)c2)COC1 (stereo not drawn) [Example 11]", "Value reported": "< 35%"}
{"Molecule": "Cc1cc(N2CCC(CN3CCC4(C3)CN(c3cc5c(c(C(F)(F)F)c3)CN(c3cccc([C@]6(Cc7nncn7C)C[C@@H](C#N)C6)c3)C5=O)C4)CC2)c(F)c2c1C(=O)N(C1CCC(=O)NC1=O)C2 (stereo partly drawn) [Example 176]", "Value reported": "35 to 70%"}

----------
target: Cbl-b (Homo sapiens); construct: Cbl-b-HiBit KI Jurkat Cells were purchased from Promega; host or cells: Cbl-b-HiBiT knock-in Jurkat cells; test: Cbl-b Degradation Method A (FACS, anti-Cbl-b antibody staining); format: cell-based; details: Cbl-b-HiBit KI Jurkat Cells, incubated at least 20 hours; half maximal degradation; read-out: Cbl-b Degredation Method A IC50

{"Molecule": "CC1c2nc(N3CCC(O[C@H]4CC[C@H](CN5C[C@H]6C[C@@H]5CN6Cc5cc6c(c(C(F)(F)F)c5)CN(c5cccc([C@]7(Cc8nncn8C)C[C@@H](C#N)C7)c5)C6=O)CC4)CC3)ccc2C(=O)N1C1CCC(=O)NC1=O (stereo partly drawn)", "DC50": "5 to 50 nM"}
{"Molecule": "Cn1cnnc1C[C@]1(c2cccc(N3Cc4c(cc(CN5CCN(C[C@H]6CC[C@H](OC7CCN(c8cccc9c8n(C)c(=O)n9C8CCC(=O)NC8=O)CC7)CC6)CC5(C)C)cc4C(F)(F)F)C3=O)c2)C[C@H](C#N)C1 (stereo partly drawn)", "DC50": "50 to 500 nM"}
{"Molecule": "Cn1cnnc1CC1(c2cccc(N3Cc4c(cc(CN5CCC(CN6CCC(c7ccc8c(c7)C(=O)N(C7CCC(=O)NC7=O)C8=O)CC6)CC5)cc4C(F)(F)F)C3=O)c2)COC1 (stereo not drawn)", "DC50": "> 500 nM"}
{"Molecule": "CC1CC(N2CCC(CC3CCN(c4ccc5c(c4)C(=O)N(C4CCC(=O)NC4=O)C5=O)CC3)CC2)CN(Cc2cc3c(c(C(F)(F)F)c2)CN(c2cccc(C4(Cc5nncn5C)COC4)c2)C3=O)C1 (stereo not drawn)", "DC50": "50 to 500 nM"}
{"Molecule": "Cn1cnnc1C[C@]1(c2cccc(N3Cc4c(cc(N5CC6(CCN(CC7CCN(c8ccc9c(c8)C(=O)N(C8CCC(=O)NC8=O)C9=O)CC7)CC6)C5)cc4C(F)(F)F)C3=O)c2)C[C@@H](C#N)C1 (stereo partly drawn)", "DC50": "5 to 50 nM"}
{"Molecule": "CC1c2nc(N3CCC(CN4CCN(CC5CCN(Cc6cc7c(c(C(F)(F)F)c6)CN(c6cccc([C@]8(Cc9nncn9C)C[C@@H](C#N)C8)c6)C7=O)C(C)(C)C5)CC4)CC3)ccc2C(=O)N1C1CCC(=O)NC1=O (stereo partly drawn)", "DC50": "5 to 50 nM"}
{"Molecule": "Cn1cnnc1CC1(c2cccc(N3Cc4c(cc(CN5CCC(CN6CC7(CCN(c8ccc9c(c8)C(=O)N(C8CCC(=O)NC8=O)C9=O)CC7)C6)CC5)cc4C(F)(F)F)C3=O)c2)COC1 (stereo not drawn)", "DC50": "> 500 nM"}
{"Molecule": "Cn1cnnc1CC1(c2cccc(N3Cc4c(cc(CN5CCN(C[C@H]6CC[C@H](OC7CCN(c8ccc9c(c8)C(=O)N(C8CCC(=O)NC8=O)C9=O)CC7)CC6)CC5)cc4C(F)(F)F)C3=O)c2)COC1 (stereo partly drawn)", "DC50": "5 to 50 nM"}
{"Molecule": "CC(C)n1c(=O)n(C2CCC(=O)NC2=O)c2cccc(N3CCC(O[C@H]4CC[C@H](CN5CCN(Cc6cc7c(c(C(F)(F)F)c6)CN(c6cccc([C@]8(Cc9nncn9C)C[C@@H](C#N)C8)c6)C7=O)C(C)(C)C5)CC4)CC3)c21 (stereo partly drawn)", "DC50": "50 to 500 nM"}
{"Molecule": "Cn1cnnc1CC1(c2cccc(N3Cc4c(cc(CN5CCC(CC6CN(c7ccc8c(c7)C(=O)N(C7CCC(=O)NC7=O)C8=O)C6)CC5)cc4C(F)(F)F)C3=O)c2)COC1 (stereo not drawn)", "DC50": "> 500 nM"}
{"Molecule": "Cn1cnnc1CC1(c2cccc(N3Cc4c(cc(N5CCC(CC6CCN(c7cc8c(cc7F)C(=O)N(C7CCC(=O)NC7=O)C8=O)CC6)CC5)cc4C(F)(F)F)C3=O)c2)COC1 (stereo not drawn)", "DC50": "> 500 nM"}
{"Molecule": "Cn1cnnc1CC1(c2cccc(N3Cc4c(cc(N5CC6(CC(CCOc7ccc8c(c7)C(=O)N(C7CCC(=O)NC7=O)C8=O)C6)C5)cc4C(F)(F)F)C3=O)c2)COC1 (stereo not drawn)", "DC50": "> 500 nM"}
{"Molecule": "CC(C)n1c(=O)n(C2CCC(=O)NC2=O)c2cccc(N3CCC(O[C@H]4CC[C@H](CN5CC6(CCN(Cc7cc8c(c(C(F)(F)F)c7)CN(c7cccc([C@]9(Cc%10nncn%10C)C[C@@H](C#N)C9)c7)C8=O)CC6)C5)CC4)CC3)c21 (stereo partly drawn)", "DC50": "5 to 50 nM"}
{"Molecule": "Cn1cnnc1C[C@]1(c2cccc(N3Cc4c(cc(CN5CCN(C[C@H]6CC[C@H](OC7CCN(c8ccc9c(c8F)CN(C8CCC(=O)NC8=O)C9=O)CC7)CC6)CC5)cc4C(F)(F)F)C3=O)c2)C[C@H](C#N)C1 (stereo partly drawn)", "DC50": "< 5 nM"}
{"Molecule": "Cn1cnnc1CC1(c2cccc(N3Cc4c(cc(CN5CCN(C6CC7(C6)CN(c6ccc8c(c6)C(=O)N(C6CCC(=O)NC6=O)C8=O)C7)CC5)cc4C(F)(F)F)C3=O)c2)COC1 (stereo not drawn)", "DC50": "5 to 50 nM"}
{"Molecule": "Cc1cc(N2CCC(O[C@H]3CC[C@H](CN4CCN(Cc5cc6c(c(C(F)(F)F)c5)CN(c5cccc([C@]7(Cc8nncn8C)C[C@@H](C#N)C7)c5)C6=O)CC4)CC3)CC2)c(F)c2c1C(=O)N(C1CCC(=O)NC1=O)C2 (stereo partly drawn)", "DC50": "< 5 nM"}
{"Molecule": "COc1c(N2CCC(O[C@H]3CC[C@H](CN4CCC5(CC4)CN(c4cc6c(c(C(F)(F)F)c4)CN(c4cccc(C7(Cc8nncn8C)COC7)c4)C6=O)C5)CC3)CC2)ccc2c1CN(C1CCC(=O)NC1=O)C2=O (stereo partly drawn)", "DC50": "5 to 50 nM"}
{"Molecule": "COc1c(N2CCC(CN3CCC4(CC3)CN(c3cc5c(c(C(F)(F)F)c3)CN(c3cccc(C6(Cc7nncn7C)COC6)c3)C5=O)C4)CC2)ccc2c1CN(C1CCC(=O)NC1=O)C2=O (stereo not drawn)", "DC50": "5 to 50 nM"}

Origin of the recorded values: patent US20260184710A1
